Molecular target: δOP (Homo sapiens)
Sequence (P41143 whole entry): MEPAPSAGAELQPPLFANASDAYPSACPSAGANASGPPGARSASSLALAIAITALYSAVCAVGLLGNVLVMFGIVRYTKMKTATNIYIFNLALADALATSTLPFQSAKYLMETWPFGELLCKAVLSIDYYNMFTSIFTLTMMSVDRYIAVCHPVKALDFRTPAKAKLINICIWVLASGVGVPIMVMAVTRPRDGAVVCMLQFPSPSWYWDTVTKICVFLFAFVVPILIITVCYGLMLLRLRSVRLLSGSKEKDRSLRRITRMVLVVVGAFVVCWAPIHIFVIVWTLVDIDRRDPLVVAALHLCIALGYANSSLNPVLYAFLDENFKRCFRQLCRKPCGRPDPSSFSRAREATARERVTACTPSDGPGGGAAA
Format: binding
Set-up: membranes isolated
Settings: [3H]DPDPE, CHO membranes
measured_property: Binding pKi

Examples from the recorded data:
{"compound": "CC[C@H]1CN2CCc3c([nH]c4cccc(OC)c34)[C@@H]2C[C@@H]1/C(=C\\OC)C(=O)OC [SPG, speciogynine, reference compound]", "assay_system": "δOP (Homo sapiens)", "Binding pKi": "5.1 ± 0.1 (6)"}
{"compound": "CC[C@H]1CN2CC[C@@]3(O)C(=Nc4cccc(OC)c43)[C@@H]2C[C@@H]1/C(=C\\OC)C(=O)OC [7OH SPG, 7-hydroxyspeciogynine]", "assay_system": "δOP (Homo sapiens)", "Binding pKi": "6.3±0.1"}
{"compound": "C=C[C@H]1CN2CC[C@@]3(O)C(=Nc4cccc(OC)c43)[C@@H]2C[C@@H]1/C(=C\\OC)C(=O)OC [70H PAYN, 7-Hydroxypaynantheine]", "assay_system": "δOP (Homo sapiens)", "Binding pKi": "4.9±0.2"}
{"compound": "C=CC1CN2CCC3(Nc4cccc(OC)c4C3=O)C2CC1C(=COC)C(=O)OC (centres unmarked)", "assay_system": "δOP (Homo sapiens)", "Binding pKi": "6.0 ± 0.1 (3)"}
{"compound": "CC[C@@H]1CN2CCc3c([nH]c4cccc(OC)c34)[C@H]2C[C@@H]1/C(=C\\OC)C(=O)OC", "assay_system": "δOP (Homo sapiens)", "Binding pKi": "5.4±0.1"}
{"compound": "CC[C@H]1CN2CC[C@]3(Nc4cccc(OC)c4C3=O)[C@@H]2C[C@@H]1/C(=C\\OC)C(=O)OC", "assay_system": "δOP (Homo sapiens)", "Binding pKi": "6.0 ± 0.1 (3)"}
{"compound": "CC[C@@H]1CN2CC[C@@]3(O)C(=Nc4cccc(OC)c43)[C@@H]2C[C@@H]1/C(=C\\OC)C(=O)OC [7-OH MITRA, 7-hydroxymitragynine, reference compound]", "assay_system": "δOP (Homo sapiens)", "Binding pKi": "6.7 ± 0.1 (4)"}

Please find the next compound below.
Ask | Param readout = Binding pKi; param system = δOP (Homo sapiens); param query = C=C[C@H]1CN2CCc3c([nH]c4cccc(OC)c34)[C@@H]2C[C@@H]1/C(=C\OC)C(=O)OC [PAYN, paynantheine, reference compound] ; response: value
Reply | 5.3 ± 0.1 (5)

----------
Below, each of the compounds is paired with its reported IC50 value.
Biological target: FLAG-mouse κOP (Mus musculus, UniProt P33534)
Construct: FLAG (N)
Sequence (P33534 whole entry): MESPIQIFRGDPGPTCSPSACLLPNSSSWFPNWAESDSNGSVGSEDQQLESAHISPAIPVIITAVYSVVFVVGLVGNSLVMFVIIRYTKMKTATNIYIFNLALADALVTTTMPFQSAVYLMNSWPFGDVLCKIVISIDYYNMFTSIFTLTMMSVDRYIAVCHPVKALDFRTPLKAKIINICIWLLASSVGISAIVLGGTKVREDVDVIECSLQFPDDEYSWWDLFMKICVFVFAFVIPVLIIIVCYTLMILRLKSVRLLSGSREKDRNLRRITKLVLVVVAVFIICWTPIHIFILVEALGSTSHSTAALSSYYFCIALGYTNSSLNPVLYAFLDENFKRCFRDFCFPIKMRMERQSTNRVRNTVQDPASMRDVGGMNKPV
Conditions: read-out: cAMP IC50
Record the value in µM, omitting the unit from your answer.

{"compound": "CC[C@@H]1CN2CC[C@@]3(O)C(=Nc4cccc(OC)c43)[C@@H]2C[C@@H]1/C(=C\\OC)C(=O)OC [7-OH MITRA, 7-hydroxymitragynine, reference compound]", "assay_system": "FLAG-mouse κOP (Mus musculus, UniProt P33534)", "value_reported": 1.04}

Ask | # lookup: IC50 of CC[C@H]1CN2CC[C@@]3(O)C(=Nc4cccc(OC)c43)[C@@H]2C[C@@H]1/C(=C\OC)C(=O)OC [7OH SPG, 7-hydroxyspeciogynine]
Reply | 7.71

Ask | For the compound C=C[C@H]1CN2CCc3c([nH]c4cccc(OC)c34)[C@@H]2C[C@@H]1/C(=C\OC)C(=O)OC [PAYN, paynantheine, reference compound] , what IC50 is on record?
Reply | 7.43

Ask | Look at this compound and give its reported IC50. `CC[C@H]1CN2CC[C@]3(Nc4cccc(OC)c4C3=O)[C@@H]2C[C@@H]1/C(=C\OC)C(=O)OC`
Reply | 20.6
